# Tested on: Escherichia coli TOP10
# protocol: shrunken log2 fold change of peptide-encoding DNA abundance (4.5 h post-induction vs induction); higher = less antimicrobial activity (less host growth inhibition)
# statedConditions: time post-induction: 4.5 h; library: site-saturation at positions 5, 18, 19, 20
endpointLabel: shrunken log2 fold change
Number only, no unit.

Query block: Record RRIRARPPRLPRPRPRPVQVPRP : what is its shrunken log2 fold change with Escherichia coli TOP10?
Result block: 0.123

Query block: Hi! What's the reported shrunken log2 fold change for RRIRPRPPRLPRPRPRPYHYPRP on Escherichia coli TOP10?
Result block: -0.84

Query block: State its shrunken log2 fold change on Escherichia coli TOP10: RRIRFRPPRLPRPRPRPTNVPRP
Result block: -0.254

Query block: Give recorded shrunken log2 fold change with Escherichia coli TOP10 for the following sequence: RRIRSRPPRLPRPRPRPTTTPRP
Result block: 0.0739

Query block: Reported shrunken log2 fold change for Escherichia coli TOP10, given RRIRSRPPRLPRPRPRPDYCPRP ?
Result block: -0.284

Query block: Query the reported shrunken log2 fold change for Escherichia coli TOP10; item: RRIRKRPPRLPRPRPRPAGFPRP
Result block: 0.0388

Query block: Notebook: pull reported shrunken log2 fold change for Escherichia coli TOP10, entry RRIRKRPPRLPRPRPRPDQNPRP
Result block: 0.678

Query block: Reported shrunken log2 fold change for Escherichia coli TOP10, given RRIRPRPPRLPRPRPRPTVTPRP ?
Result block: -0.0401

Query block: Entry RRIRKRPPRLPRPRPRPTWLPRP , system Escherichia coli TOP10: what shrunken log2 fold change was measured?
Result block: 0.638

Query block: // lookup shrunken log2 fold change | system=Escherichia coli TOP10 | key= RRIRTRPPRLPRPRPRPDGHPRP
Result block: -0.102

Query block: Enter reported shrunken log2 fold change observed with Escherichia coli TOP10 for RRIRARPPRLPRPRPRPGKWPRP
Result block: 0.19

Query block: Report shrunken log2 fold change for RRIRPRPPRLPRPRPRPIWQPRP tested on Escherichia coli TOP10.
Result block: 0.0572

Query block: Notebook: pull reported shrunken log2 fold change for Escherichia coli TOP10, entry RRIRHRPPRLPRPRPRPDESPRP
Result block: 0.0491

Query block: Missing value: shrunken log2 fold change, Escherichia coli TOP10, entry RRIRVRPPRLPRPRPRPYMVPRP . Fill in?
Result block: -0.292

Query block: Notebook: pull reported shrunken log2 fold change for Escherichia coli TOP10, entry RRIRLRPPRLPRPRPRPVIYPRP
Result block: -0.224

---

Please respond with reported shrunken log2 fold change for every item in the list.
# Test system: Escherichia coli TOP10;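 further: peptides expressed intracellularly from a pBAD plasmid library in pooled LB shake-flask culture, induced with 0.3% L-arabinose, DNA abundance read by NGS, three biological replicates, DESeq2 with apeglm shrinkage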
# protocol: shrunken log2 fold change of peptide-encoding DNA abundance (4.5 h post-induction vs induction); higher = less antimicrobial activity (less host growth inhibition)
# statedConditions: time post-induction: 4.5 h; library: site-saturation at positions 5, 18, 19, 20
I only need the number, thanks.

Query block: Any idea what its shrunken log2 fold change is? The sequence is RRIRRRPPRLPRPRPRPRPLPRP
Result block: 0.559

Query block: Sample RRIRFRPPRLPRPRPRPPLMPRP — what was its shrunken log2 fold change?
Result block: 0.154

Query block: What value of shrunken log2 fold change has been reported for the following sequence? RRIRNRPPRLPRPRPRPFPYPRP
Result block: -0.4

Query block: Request the reported shrunken log2 fold change associated with RRIRKRPPRLPRPRPRPDNEPRP
Result block: 0.665

Query block: Which shrunken log2 fold change reading was recorded for the sequence RRIRYRPPRLPRPRPRPYVDPRP ?
Result block: -0.0075

Query block: Entry RRIRGRPPRLPRPRPRPDGQPRP : reported shrunken log2 fold change = ?
Result block: 0.175

Query block: Any idea what shrunken log2 fold change was measured for RRIRPRPPRLPRPRPRPYYNPRP ?
Result block: -1.11

Query block: Fill in the blank: the reported shrunken log2 fold change of RRIRCRPPRLPRPRPRPQIQPRP is ____.
Result block: -0.288

Query block: Any idea what shrunken log2 fold change was measured for RRIRHRPPRLPRPRPRPVINPRP ?
Result block: -0.242

Query block: For the sequence shown here, RRIRKRPPRLPRPRPRPNMYPRP , give the reported shrunken log2 fold change.
Result block: -0.14

Query block: Give its shrunken log2 fold change value. Item: RRIRFRPPRLPRPRPRPIFAPRP
Result block: 0.161

Query block: Value lookup for shrunken log2 fold change; key = RRIRPRPPRLPRPRPRPAGEPRP
Result block: 0.418

Query block: Would you mind telling me what shrunken log2 fold change value was observed for RRIRFRPPRLPRPRPRPYEHPRP ?
Result block: -0.0962

Query block: I am curious: what shrunken log2 fold change value has been reported for RRIRVRPPRLPRPRPRPYSSPRP ?
Result block: -0.644

Query block: Look up shrunken log2 fold change: RRIRPRPPRLPRPRPRPFYLPRP
Result block: -0.685

Query block: Item RRIRRRPPRLPRPRPRPDQAPRP has what recorded shrunken log2 fold change?
Result block: -0.00925

Query block: Name the reported shrunken log2 fold change value associated with the sequence RRIRGRPPRLPRPRPRPVKNPRP
Result block: 0.554

Query block: What does the data say about its shrunken log2 fold change? Entry: RRIRCRPPRLPRPRPRPVRYPRP
Result block: 0.0829

Query block: Reported shrunken log2 fold change, sequence RRIRWRPPRLPRPRPRPPEFPRP : ____
Result block: 0.094

Query block: Field request: shrunken log2 fold change | item: RRIRLRPPRLPRPRPRPTPAPRP
Result block: 0.306

Query block: Sample RRIRKRPPRLPRPRPRPVWGPRP — what was its shrunken log2 fold change?
Result block: 3.44

Query block: Endpoint output: shrunken log2 fold change of RRIRVRPPRLPRPRPRPTTSPRP . Value?
Result block: 0.097

Query block: Entry RRIRQRPPRLPRPRPRPQPSPRP has what shrunken log2 fold change?
Result block: 0.44

Query block: // shrunken log2 fold change lookup, key: RRIRERPPRLPRPRPRPDQTPRP
Result block: -0.00664

Query block: Given RRIRTRPPRLPRPRPRPSRNPRP , state its recorded shrunken log2 fold change.
Result block: -0.0832

Query block: Record request: shrunken log2 fold change value, item RRIRARPPRLPRPRPRPCGTPRP
Result block: 0.475

Query block: Could you share which shrunken log2 fold change value was measured for RRIRGRPPRLPRPRPRPEWTPRP ?
Result block: 1.27

Query block: Query: shrunken log2 fold change; subject: RRIRWRPPRLPRPRPRPKMNPRP
Result block: 0.0146

Query block: Using the record for RRIRFRPPRLPRPRPRPIHVPRP , report its shrunken log2 fold change.
Result block: -0.335

Query block: Which shrunken log2 fold change is reported for this sequence? RRIRQRPPRLPRPRPRPRYCPRP
Result block: -0.143

Query block: For the sequence RRIRMRPPRLPRPRPRPEGIPRP , what shrunken log2 fold change is on record?
Result block: 2.03

Query block: Which shrunken log2 fold change is reported for this sequence? RRIRSRPPRLPRPRPRPTYQPRP
Result block: -0.0198
